Measured On: T1, EsCas13d, nuclease-dead (Eubacterium siraeum, UniProt B0MS50, R295A;H300A;R849A;H854A)
T1 sequence: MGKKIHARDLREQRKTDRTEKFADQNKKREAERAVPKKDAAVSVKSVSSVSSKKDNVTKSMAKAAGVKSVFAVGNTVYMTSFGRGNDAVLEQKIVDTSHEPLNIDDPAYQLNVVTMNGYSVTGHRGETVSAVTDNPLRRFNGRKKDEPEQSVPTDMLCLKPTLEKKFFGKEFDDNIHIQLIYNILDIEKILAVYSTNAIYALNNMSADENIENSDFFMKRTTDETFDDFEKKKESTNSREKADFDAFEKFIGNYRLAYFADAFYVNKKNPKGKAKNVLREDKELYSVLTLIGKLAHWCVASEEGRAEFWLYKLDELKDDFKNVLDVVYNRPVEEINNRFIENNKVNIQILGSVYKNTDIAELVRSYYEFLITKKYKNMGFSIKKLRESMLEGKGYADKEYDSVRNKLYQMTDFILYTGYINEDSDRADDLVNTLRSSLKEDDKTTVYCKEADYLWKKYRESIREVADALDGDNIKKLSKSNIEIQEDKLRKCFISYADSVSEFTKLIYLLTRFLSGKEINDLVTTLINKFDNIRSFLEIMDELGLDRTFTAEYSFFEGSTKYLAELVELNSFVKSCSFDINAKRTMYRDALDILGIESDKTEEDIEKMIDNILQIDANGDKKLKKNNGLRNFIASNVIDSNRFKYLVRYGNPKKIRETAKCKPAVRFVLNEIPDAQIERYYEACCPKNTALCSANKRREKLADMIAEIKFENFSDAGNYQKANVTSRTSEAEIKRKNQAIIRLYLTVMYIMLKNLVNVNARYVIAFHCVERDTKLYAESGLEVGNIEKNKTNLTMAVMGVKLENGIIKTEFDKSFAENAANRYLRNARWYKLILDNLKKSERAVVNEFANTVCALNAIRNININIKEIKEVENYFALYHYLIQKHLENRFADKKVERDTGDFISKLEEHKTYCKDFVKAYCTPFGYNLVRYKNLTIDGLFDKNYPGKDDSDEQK
Test Protocol: crRNA (strand 1, pre-loaded); Mg2+; 40 mM Tris-HCl pH 7.5, 150 mM NaCl, 6 mM MgCl2, 1 mM DTT, 0.1% Tween-20, 0.2 mg/ml BSA; 25 C; 10 min per concentration, then washed
Measurement Context: tags: His6-TwinStrep-SUMO cleaved; N-terminal SNAP kept (SNAP-Surface 488); label: 3' end held by stalled T7 RNA polymerase
The reader will find reported Kd values listed item by item below.
Kindly answer with a numeric value in nM, unit omitted.

Guide cases for Kd, answers given:
Binder	Kd [nM]
target 2 MT 5'PFS GGG 3'PFS ACA (mixed) RNA 1: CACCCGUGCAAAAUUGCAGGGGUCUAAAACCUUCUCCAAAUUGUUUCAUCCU RNA 2: GGGAAUGGAUCCACAUCUACGAAUUCGGGAGGAUGAAACAAUUUGGAGAAGACAAGAUCGGAAGAGCACACGU	9.4
target 1 insA 3' of 22,insA 3' of 10 (mixed) RNA 1: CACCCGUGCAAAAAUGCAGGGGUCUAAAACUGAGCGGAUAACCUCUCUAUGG RNA 2: GGGAAUGGAUCCACAUCUACGAAUUCGUACACAUAGAGAGGUUAAUCCGCUCACCGAGAUCGGAAGAGCACACGU	14.6

Need Kd of target 1 G13A,G17A (mixed) RNA 1: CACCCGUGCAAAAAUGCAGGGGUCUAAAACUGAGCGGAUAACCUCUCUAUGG RNA 2: GGGAAUGGAUCCACAUCUACGAAUUCGUACCAUAAAGAAGUUAUCCGCUCACCGAGAUCGGAAGAGCACACGU , thanks.
66

What value of Kd has been recorded for this entry: target 2 MT 5'PFS AUG 3'PFS CCG (mixed) RNA 1: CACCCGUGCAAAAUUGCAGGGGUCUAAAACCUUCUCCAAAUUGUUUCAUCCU RNA 2: GGGAAUGGAUCCACAUCUACGAAUUCAUGAGGAUGAAACAAUUUGGAGAAGCCGAGAUCGGAAGAGCACACGU
9.5

Quick check: Kd of target 1 insA 3' of 13,insU 3' of 5 (mixed) RNA 1: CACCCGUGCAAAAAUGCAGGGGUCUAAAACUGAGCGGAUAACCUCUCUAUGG RNA 2: GGGAAUGGAUCCACAUCUACGAAUUCGUACCAUAGAGAGAGUUAUCCGUCUCACCGAGAUCGGAAGAGCACACGU ?
4.34
